target: p-Hydroxymandelate oxidase (Hmo) (Amycolatopsis orientalis, UniProt O52792)
Sequence (O52792 whole entry): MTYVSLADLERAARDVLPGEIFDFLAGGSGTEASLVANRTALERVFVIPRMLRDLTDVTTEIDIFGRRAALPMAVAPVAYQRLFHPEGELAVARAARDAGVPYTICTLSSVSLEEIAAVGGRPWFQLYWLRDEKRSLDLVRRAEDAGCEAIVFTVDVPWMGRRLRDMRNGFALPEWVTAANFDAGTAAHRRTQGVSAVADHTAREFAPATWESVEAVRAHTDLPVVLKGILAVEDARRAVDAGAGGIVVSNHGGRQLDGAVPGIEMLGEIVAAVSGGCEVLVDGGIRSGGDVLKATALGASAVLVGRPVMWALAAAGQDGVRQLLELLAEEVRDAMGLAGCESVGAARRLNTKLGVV
readout: pKd
Answer as the number alone; pKd is minus log10 of concentration in mol/L.

Ask: Recorded pKd for O=C(O)C(=O)c1ccccc1 [BF, benzoylformate] with p-Hydroxymandelate oxidase (Hmo) (Amycolatopsis orientalis, UniProt O52792), please?
Reply: 2.72
